assayedTarget: Prostaglandin G/H synthase 1 (Homo sapiens)
Sequence (P23219 whole entry): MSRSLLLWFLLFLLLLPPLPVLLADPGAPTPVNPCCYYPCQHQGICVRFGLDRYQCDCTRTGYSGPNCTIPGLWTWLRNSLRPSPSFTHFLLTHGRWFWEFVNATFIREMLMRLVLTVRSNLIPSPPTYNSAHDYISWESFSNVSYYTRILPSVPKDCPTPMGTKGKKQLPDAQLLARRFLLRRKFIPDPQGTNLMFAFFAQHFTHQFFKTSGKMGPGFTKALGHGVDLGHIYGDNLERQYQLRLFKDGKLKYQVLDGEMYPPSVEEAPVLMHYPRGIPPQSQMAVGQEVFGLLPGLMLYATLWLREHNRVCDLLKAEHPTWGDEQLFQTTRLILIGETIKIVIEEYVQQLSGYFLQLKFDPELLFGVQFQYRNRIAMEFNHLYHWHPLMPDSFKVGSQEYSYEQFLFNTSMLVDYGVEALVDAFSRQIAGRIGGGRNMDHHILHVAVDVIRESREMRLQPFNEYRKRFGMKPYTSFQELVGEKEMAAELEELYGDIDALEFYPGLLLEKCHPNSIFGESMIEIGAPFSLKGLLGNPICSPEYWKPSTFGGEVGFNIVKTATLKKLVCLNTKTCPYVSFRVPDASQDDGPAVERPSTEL
protocolNotes: Inhibition of cyclooxygenase 1 in human whole blood assessed as thromboxane B2 level
readout: pIC50
Quick note: pIC50 values are minus log10 of concentrations in mol/L.

Ask | Item COc1cc(NC(C)=O)ccc1O has what recorded pIC50?
Reply | 3.63

---

assayedTarget: Cannabinoid receptor 1 (Homo sapiens, UniProt P21554)
Sequence (P21554 whole entry): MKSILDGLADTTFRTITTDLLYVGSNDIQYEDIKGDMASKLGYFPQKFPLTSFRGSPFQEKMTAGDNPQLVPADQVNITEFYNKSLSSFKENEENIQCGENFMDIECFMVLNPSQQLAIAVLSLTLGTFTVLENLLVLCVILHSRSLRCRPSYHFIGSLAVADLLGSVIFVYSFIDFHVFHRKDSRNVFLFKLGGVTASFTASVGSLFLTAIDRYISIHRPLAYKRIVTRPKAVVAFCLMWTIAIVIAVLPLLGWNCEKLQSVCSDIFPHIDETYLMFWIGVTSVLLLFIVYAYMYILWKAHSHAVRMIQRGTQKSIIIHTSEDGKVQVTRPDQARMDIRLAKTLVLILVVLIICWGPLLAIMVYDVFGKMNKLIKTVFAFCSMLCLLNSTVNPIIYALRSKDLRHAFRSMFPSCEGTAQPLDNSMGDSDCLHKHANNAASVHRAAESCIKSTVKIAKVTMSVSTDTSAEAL
protocolNotes: Displacement of [3H]CP-55940 from human recombinant CB1 receptor expressed in HEK293 cells
Give measured Ki for each item. Keep answers brief.
Please give a number only; it is taken to be in nM.

Ask | Item CCCCC/C=C\C/C=C\C/C=C\C/C=C\CCCC(=O)Nc1ccc2[nH]ncc2c1 has what recorded Ki?
Reply | 300

Ask | Item CCCCC/C=C\C/C=C\C/C=C\C/C=C\CCCC(=O)Nc1ccc(O)cc1 has what recorded Ki?
Reply | 1500

Ask | Item CCCCC/C=C\C/C=C\C/C=C\C/C=C\CCCC(=O)Nc1ccc(O)c(OC)c1 has what recorded Ki?
Reply | 1400

Ask | Item CCCCC/C=C\C/C=C\C/C=C\C/C=C\CCCC(=O)NCc1ccc(O)cc1 has what recorded Ki?
Reply | 200

---

Give measured pIC50 for each item. Keep answers brief.
assayedTarget: Prostaglandin G/H synthase 2 (Homo sapiens, UniProt P35354)
Sequence (P35354 whole entry): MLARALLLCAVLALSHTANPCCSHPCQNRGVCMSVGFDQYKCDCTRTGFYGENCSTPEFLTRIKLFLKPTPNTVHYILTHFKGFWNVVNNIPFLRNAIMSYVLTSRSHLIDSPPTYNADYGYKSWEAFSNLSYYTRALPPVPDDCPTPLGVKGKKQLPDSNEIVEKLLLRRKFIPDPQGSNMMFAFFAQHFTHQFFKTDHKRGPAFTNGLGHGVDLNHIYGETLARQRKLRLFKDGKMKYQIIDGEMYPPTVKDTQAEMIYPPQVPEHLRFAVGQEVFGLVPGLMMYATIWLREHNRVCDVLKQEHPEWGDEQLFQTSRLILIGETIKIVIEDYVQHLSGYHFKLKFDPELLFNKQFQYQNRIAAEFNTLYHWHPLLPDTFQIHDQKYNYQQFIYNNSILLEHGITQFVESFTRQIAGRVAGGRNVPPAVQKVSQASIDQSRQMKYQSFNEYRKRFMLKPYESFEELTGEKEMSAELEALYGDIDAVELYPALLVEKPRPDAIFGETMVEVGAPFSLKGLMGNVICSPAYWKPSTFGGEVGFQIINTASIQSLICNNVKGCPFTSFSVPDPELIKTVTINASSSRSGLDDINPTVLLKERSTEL
protocolNotes: Inhibition of cyclooxygenase 2 in human whole blood assessed as prostaglandin E2 level
Quick note: pIC50 values are minus log10 of concentrations in mol/L.

Ask | Item COc1cc(NC(C)=O)ccc1O has what recorded pIC50?
Reply | 3.86

Ask | Item CC(=O)Nc1ccc2[nH]ncc2c1 has what recorded pIC50?
Reply | 3.97

---

Give measured Activity for each item. Keep answers brief.
assayedTarget: Cannabinoid receptor 2 (Homo sapiens)
Sequence (P34972 whole entry): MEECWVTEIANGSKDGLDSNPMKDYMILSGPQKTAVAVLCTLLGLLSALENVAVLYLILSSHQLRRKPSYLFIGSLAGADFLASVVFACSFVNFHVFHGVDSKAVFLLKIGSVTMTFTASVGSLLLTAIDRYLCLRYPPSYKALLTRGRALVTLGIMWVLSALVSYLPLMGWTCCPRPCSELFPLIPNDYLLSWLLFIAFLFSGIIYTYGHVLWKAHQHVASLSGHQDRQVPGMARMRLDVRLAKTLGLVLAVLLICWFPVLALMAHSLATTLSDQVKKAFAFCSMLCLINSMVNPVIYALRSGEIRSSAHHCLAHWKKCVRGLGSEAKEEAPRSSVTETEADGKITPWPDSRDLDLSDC
protocolNotes: Displacement of [3H]CP-55940 from human recombinant CB2 receptor expressed in HEK293 cells at 10 uM
Assay type: cell-based
Please give a number only; it is taken to be in %.

Ask | Item CC(=O)Nc1ccc(O)cc1 has what recorded Activity?
Reply | 15

Ask | Item COc1cc(NC(C)=O)ccc1O has what recorded Activity?
Reply | 22

Ask | Item CC(=O)NCc1ccc(O)cc1 has what recorded Activity?
Reply | 7

Ask | Item CC(=O)Nc1ccc2[nH]ncc2c1 has what recorded Activity?
Reply | 12
